Data provenance: PubChem BioAssay (Tox21)

experiment.notes: qHTS assay to identify small molecule antagonists of the estrogen related receptor (ERR) signaling pathway from Tox21 library - cell viability counter screen (AID 1224834); also: nearly all actives have a fitted effect of over 30% in size
protocol.conditions: ERR reporter cells viability, CellTiter-Fluor, 17.5 h; series mostly up to 92.4 µM
Results filed as inconclusive are left out. Calls of active or inactive are those of the source. Calls follow the shape of the dose curve; as a rule, active = well fitted cell-killing curve with a large enough effect in the repeat runs; inconclusive = weak or mixed curves; inactive = flat fitted curve, though single readings scatter.
property: outcome

Example entries begin here.
compound: O=[N+]([O-])c1ccc2nc[nH]c2c1
property: outcome
measured.value: inactive

compound: CC1(C)S[C@@H]2[C@H](NC(=O)COc3ccccc3)C(=O)N2[C@H]1C(=O)O
property: outcome
measured.value: inactive

compound: COc1ccc(N)c(C)c1
property: outcome
measured.value: inactive

compound: CC(C)CCCCCCCOC(=O)CCCCC(=O)OCCCCCCCC(C)C
property: outcome
measured.value: inactive

compound: CC(=O)c1ccc(O)cc1
property: outcome
measured.value: inactive

compound: COC(=O)CCCC(=O)OC
property: outcome
measured.value: inactive

Pending compound:
Lookup: Which measured outcome value corresponds to O=C(O)c1ccccc1C(=O)O ?
Found: inactive
